// provenance: patent US12129246B1

- study system: monkey NPR1 (Macaca fascicularis)
- assay protocol: Cellular cGMP production assay, monkey NPR1 expressing CHO-K1 cells (CisBio HTRF)
- Format: cell-based
- run conditions: maximum cGMP production as percentage of the maximum cGMP produced with ANP, monkey NPR1 CHO-K1 cells
parameter measured: Monkey NPR1 Amax (% of ANP)

Some compounds with recorded Monkey NPR1 Amax (% of ANP):
CC[C@@H](Nc1nc2c(c(N[C@@H](CN3C4CCCC3CC4)c3scnc3C)n1)C[C@H](c1cccc(F)c1)CC2)[C@H]1CC[C@H](C(=O)O)CC1 [Compound 26]
102.667 % of ANP
CC[C@H]([C@H]1CC[C@H](C(=O)O)CC1)N(C)c1nc2c(c(N[C@@H](CN3CCCCC3)c3cnn(CC)c3)n1)C[C@H](c1cccc(F)c1)CC2 [Compound 91]
102.129 % of ANP
CC[C@@H](N(C)c1nc2c(c(N[C@@H](CN3C4CCCC3CCC4)c3cnn(C)c3)n1)C[C@H](c1ccccc1F)CC2)C12CC(C(=O)O)(C1)C2 [Compound 41]
92.494 % of ANP

Documented Monkey NPR1 Amax (% of ANP) of CC[C@@H](N(C)c1nc2c(c(N[C@@H](CN3C4CCCC3CC4)c3cnn(C)c3)n1)C[C@H](c1ccc(F)cc1)CC2)C12CC(C(=O)O)(C1)C2 [Compound 25] : 106.072 % of ANP

Entry CC[C@@H](N(C)c1nc2c(c(N[C@@H](CN3C4CCCC3CCC4)c3ccnn3C)n1)C[C@H](c1ccccc1)CC2)C12CC(C(=O)O)(C1)C2 [Compound 172] ; Monkey NPR1 Amax (% of ANP) = 111.107 % of ANP

Form field Monkey NPR1 Amax (% of ANP), entry CC[C@@H]([C@H]1CC[C@@](F)(C(=O)O)CC1)N(C)c1nc2c(c(N[C@H](CN3CCC[C@@H](C)C3)c3cnn(C)c3)n1)C[C@@H](c1ccccc1)CC2 [Compound 21] : 101.974 % of ANP

Per the record, CC[C@@H](Nc1nc2c(c(N[C@@H](CN3CC4CCC3C4)c3ccccc3)n1)C[C@H](c1ccccc1)CC2)[C@H]1CC[C@H](C(=O)O)CC1 (stereo partly shown) [Compound 160] has Monkey NPR1 Amax (% of ANP) of 102.098 % of ANP

---

- study system: monkey NPR1 (Macaca fascicularis, UniProt A0A7N9DBT9)
- Sequence (A0A7N9DBT9 entry or part of it): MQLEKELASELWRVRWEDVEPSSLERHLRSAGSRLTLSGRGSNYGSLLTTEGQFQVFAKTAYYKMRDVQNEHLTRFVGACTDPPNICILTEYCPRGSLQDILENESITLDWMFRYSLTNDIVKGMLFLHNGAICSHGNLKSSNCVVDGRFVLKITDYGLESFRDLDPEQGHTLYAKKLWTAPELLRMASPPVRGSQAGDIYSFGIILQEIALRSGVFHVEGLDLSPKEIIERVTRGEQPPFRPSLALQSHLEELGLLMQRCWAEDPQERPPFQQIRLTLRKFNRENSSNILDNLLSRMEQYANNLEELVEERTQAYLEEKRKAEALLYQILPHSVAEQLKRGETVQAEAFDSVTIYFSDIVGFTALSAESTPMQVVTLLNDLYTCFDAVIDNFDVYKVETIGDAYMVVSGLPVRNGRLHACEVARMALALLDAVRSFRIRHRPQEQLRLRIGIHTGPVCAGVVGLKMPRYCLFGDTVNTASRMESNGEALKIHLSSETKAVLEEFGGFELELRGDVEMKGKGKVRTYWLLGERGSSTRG
- assay protocol: Cellular cGMP production assay, monkey NPR1 expressing CHO-K1 cells (CisBio HTRF)
- Assay type: cell-based
- run conditions: maximum cGMP production as percentage of the maximum cGMP produced with ANP, monkey NPR1 CHO-K1 cells
// values below are reported Monkey NPR1 Amax (% of ANP)

Sample answers from the record:
CC[C@@H](Nc1nc2c(c(N[C@@H](CN3CCCCC3)c3cnn(CC)c3)n1)C[C@H](c1cccc(F)c1)CC2)[C@H]1CC[C@H](C(=O)O)CC1 [Compound 30]
99.091 % of ANP
CC[C@@H](Nc1nc2c(c(N[C@@H](CN3CCC(OC)CC3)c3cnn(C)c3)n1)C[C@H](c1ccccc1)CC2)[C@H]1CC[C@H](C(=O)O)CC1 [Compound 151]
96.950 % of ANP
CC[C@@H](Nc1nc2c(c(N[C@@H](CN3CCCCC3)c3cnc(C)s3)n1)C[C@H](c1ccccc1)CC2)[C@H]1CC[C@H](C(=O)O)CC1 [Compound 119]
90.965 % of ANP

Assay monkey NPR1 (Macaca fascicularis, UniProt A0A7N9DBT9), sample CC[C@@H](Nc1nc2c(c(N[C@@H](CN3C4CCCC3CC4)c3sc(C)nc3C)n1)C[C@H](c1cccc(F)c1)CC2)[C@H]1CC[C@H](C(=O)O)CC1 [Compound 24] , Monkey NPR1 Amax (% of ANP) read: 128.837 % of ANP

// assay monkey NPR1 (Macaca fascicularis, UniProt A0A7N9DBT9), entry C[C@@H](Nc1nc2c(c(N[C@@H](CN3C4CCCC3CCC4)c3cnn(C)c3)n1)C[C@H](c1ccccc1)CC2)c1ccc(C(=O)O)c(F)c1 [Compound 168] , Monkey NPR1 Amax (% of ANP) value = 93.654 % of ANP

Result for CC[C@H]([C@H]1CC[C@H](C(=O)O)CC1)N(C)c1nc2c(c(N[C@@H](CN3C4CCCC3CC4)c3cnn(C)c3)n1)C[C@](C)(c1ccccc1)CC2 [Compound 34] , tested on monkey NPR1 (Macaca fascicularis, UniProt A0A7N9DBT9), Monkey NPR1 Amax (% of ANP): 100.553 % of ANP

---

- study system: monkey NPR1 (Macaca fascicularis)
- assay protocol: Cellular cGMP production assay, monkey NPR1 expressing CHO-K1 cells (CisBio HTRF)
- Type: cell-based
- run conditions: cGMP production, monkey NPR1 CHO-K1 cells, 30 min at 37° C., 12-point dose-response from 30 μM; read-out: Monkey NPR1 AC50
parameter measured: AC50 (nM)
Please respond with the number in nM and leave the unit unwritten.

CC[C@@H](Nc1nc2c(c(N[C@@H](CN3CCCCC3)c3cnn(CC)c3)n1)C[C@H](c1ccccc1)CC2)[C@H]1CC[C@H](C(=O)O)CC1 [Compound 45]
125
CC[C@H]([C@H]1CC[C@H](C(=O)O)CC1)N(C)c1nc2c(c(N[C@@H](CN3CCC[C@H](COC)C3)c3cnn(C)c3)n1)C[C@H](c1ccccc1)CC2 [Compound 83]
173

Short answer for CC[C@H]([C@H]1CC[C@H](C(=O)O)CC1)N(C)c1nc2c(c(N[C@@H](CN3CCC[C@H](CF)C3)c3cnn(C)c3)n1)C[C@H](c1cccc(F)c1)CC2 [Compound 19] : AC50 was 82

Form: compound = CC[C@@H](Nc1nc2c(c(N[C@@H](CN3CCCC[C@H]3C)c3cnn(C)c3)n1)C[C@H](c1ccccc1)CC2)[C@H]1CC[C@H](C(=O)O)CC1 [Compound 90] ; AC50 = 224

Documented AC50 of CC[C@@H](Nc1nc2c(c(N[C@@H](CN3CCCCCC3)c3cnn(C)c3)n1)C[C@H](c1ccccc1)CC2)[C@H]1CC[C@H](C(=O)O)CC1 [Compound 51] : 110

Data point: CC[C@H](N(C)c1nc2c(c(N[C@@H](CN3CCC[C@@H](CF)C3)c3cnn(C)c3)n1)C[C@@](C)(c1ccccc1)CC2)C12CC(C(=O)O)(C1)C2 [Compound 36] ; AC50 = 133

Briefly, AC50 measured for CC[C@H]([C@H]1CC[C@H](C(=O)O)CC1)N(C)c1nc2c(c(N[C@@H](CN3CCCCC3)c3cnn(C)c3)n1)CN(c1cccc(F)c1)CC2 [Compound 157] : 999

# AC50 of CC[C@@H](Nc1nc2c(c(N[C@@H](CN(C)C)c3ccccc3)n1)C[C@H](c1ccccc1)CC2)[C@H]1CC[C@H](C(=O)O)CC1 [Compound 165] = 1080

The reported value for CC[C@H]([C@H]1CC[C@H](C(=O)O)CC1)N(C)c1nc2c(c(N[C@@H](CN3CCC[C@H](CO)C3)c3cnn(C)c3)n1)C[C@H](c1ccccc1)CC2 [Compound 93] in terms of AC50 is 261

Entry CC[C@@H](Nc1nc2c(c(N[C@@H](CN3CCCC3)c3ccccc3)n1)C[C@H](c1ccccc1)CC2)[C@H]1CC[C@H](C(=O)O)CC1 [Compound 85] , AC50 reported as 238

get_value(item= CC[C@H]([C@H]1CC[C@H](C(=O)O)CC1)N(C)c1nc2c(c(N[C@@H](CN3CCC[C@H](C)C3)c3cnn(C)c3)n1)C[C@H](c1ccc(F)cc1)CC2 [Compound 14] , readout=AC50) returns 62

---

- study system: human NPR1 (Homo sapiens, UniProt P16066)
- Construct: host or cells: CHO-K1
- Sequence (P16066 33-1061): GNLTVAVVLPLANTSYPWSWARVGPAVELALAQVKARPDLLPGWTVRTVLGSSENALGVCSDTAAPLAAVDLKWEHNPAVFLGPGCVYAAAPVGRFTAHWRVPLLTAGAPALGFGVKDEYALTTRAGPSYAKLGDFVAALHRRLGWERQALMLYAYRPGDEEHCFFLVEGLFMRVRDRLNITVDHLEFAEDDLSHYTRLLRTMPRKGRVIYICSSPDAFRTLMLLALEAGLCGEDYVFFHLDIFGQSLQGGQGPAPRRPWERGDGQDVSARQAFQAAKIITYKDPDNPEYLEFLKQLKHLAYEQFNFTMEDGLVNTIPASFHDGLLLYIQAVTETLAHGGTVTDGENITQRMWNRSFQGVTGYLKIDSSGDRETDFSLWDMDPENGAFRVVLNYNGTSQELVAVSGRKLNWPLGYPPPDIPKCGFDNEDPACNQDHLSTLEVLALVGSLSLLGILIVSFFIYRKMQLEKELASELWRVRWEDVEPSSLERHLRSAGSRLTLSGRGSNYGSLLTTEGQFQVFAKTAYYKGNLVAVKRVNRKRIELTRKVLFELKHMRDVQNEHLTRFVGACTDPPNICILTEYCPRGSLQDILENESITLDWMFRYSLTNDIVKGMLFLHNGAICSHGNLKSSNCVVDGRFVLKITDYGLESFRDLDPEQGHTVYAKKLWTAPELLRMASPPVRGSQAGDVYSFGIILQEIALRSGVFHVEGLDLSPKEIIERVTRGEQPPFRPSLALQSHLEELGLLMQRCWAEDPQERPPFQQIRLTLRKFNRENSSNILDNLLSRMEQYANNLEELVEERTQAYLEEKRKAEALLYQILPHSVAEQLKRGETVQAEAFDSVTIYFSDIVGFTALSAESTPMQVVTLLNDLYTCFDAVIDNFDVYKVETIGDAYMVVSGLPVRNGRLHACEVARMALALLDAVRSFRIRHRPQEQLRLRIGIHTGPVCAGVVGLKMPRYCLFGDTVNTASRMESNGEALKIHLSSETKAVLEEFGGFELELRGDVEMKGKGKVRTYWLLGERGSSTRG
- assay protocol: Cellular cGMP production assay, human NPR1 expressing CHO-K1 cells (CisBio HTRF)
- Assay type: cell-based
- run conditions: maximum cGMP production as percentage of the maximum cGMP produced with ANP
parameter measured: Human NPR1 Amax (% of ANP)

Here are 10 compounds together with their reported answers.
CC[C@@H](Nc1nc2c(c(N[C@@H](CN3C4CCCC3CC4)c3scnc3C)n1)C[C@H](c1cccc(F)c1)CC2)[C@H]1CC[C@H](C(=O)O)CC1 [Compound 26]
115.149 % of ANP
CC[C@@H](Nc1nc2c(c(N[C@@H](CNC3CCOCC3)c3ccccc3)n1)C[C@H](c1ccccc1)CC2)[C@H]1CC[C@H](C(=O)O)CC1 [Compound 166]
101.913 % of ANP
CC[C@@H](Nc1nc2c(c(N[C@@H](CN3C4CCCC3CCC4)c3cnn(C)c3)n1)C[C@H](c1cccc(F)c1)CC2)[C@H]1CC[C@H](C(=O)O)CC1 [Compound 15]
106.001 % of ANP
CC[C@@H](Nc1nc2c(c(N[C@@H](CN3C[C@H](C)C[C@H](C)C3)c3cnn(C)c3)n1)C[C@H](c1ccccc1)CC2)[C@H]1CC[C@H](C(=O)O)CC1 [Compound 61]
104.236 % of ANP
CC[C@@H](Nc1nc2c(c(N[C@@H](CN3C4CCCC3CC4)c3sc(C)nc3C)n1)C[C@H](c1cccc(F)c1)CC2)[C@H]1CC[C@H](C(=O)O)CC1 [Compound 24]
112.884 % of ANP
CC[C@@H](Nc1nc2c(c(N[C@@H](CN3CCCC(CF)C3)c3cnn(C)c3)n1)C[C@H](c1cccc(F)c1)CC2)[C@H]1CC[C@H](C(=O)O)CC1 (some centres unmarked) [Compound 175]
109.91 % of ANP
CC[C@H]([C@H]1CC[C@H](C(=O)O)CC1)N(C)c1nc2c(c(N[C@@H](CN3C4CCC3CC4)c3cnn(C)c3)n1)C[C@H](c1ccc(F)cc1)CC2 [Compound 63]
100.629 % of ANP
CC[C@H]([C@H]1CC[C@H](C(=O)O)CC1)N(C)c1nc2c(c(N[C@@H](CN3CCC[C@H](C)C3)c3cnn(C)c3)n1)C[C@](C)(c1ccccc1)CC2 [Compound 7]
97.105 % of ANP
CC[C@H]([C@H]1CC[C@H](C(=O)O)CC1)N(C)c1nc2c(c(N[C@@H](CN3C4CC5CC(C4)CC3C5)c3cnn(C)c3)n1)C[C@H](c1ccccc1)CC2 [Compound 98]
100.756 % of ANP
CC[C@H]([C@H]1CC[C@H](C(=O)O)CC1)N(C)c1nc2c(c(N[C@@H](CN3CCC[C@H](C)C3)c3cnn(C)c3)n1)CN(c1cccc(F)c1)CC2 [Compound 124]
106.069 % of ANP

CC[C@H]([C@H]1CC[C@H](CC(=O)O)CC1)N(C)c1nc2c(c(N[C@@H](CN3CCC[C@H](C)C3)c3cnn(C)c3)n1)C[C@H](c1cccc(F)c1)CC2 [Compound 39] yielded Human NPR1 Amax (% of ANP) of 100.189 % of ANP
